Value source: ChEMBL document CHEMBL3804820

# tested system: Human immunodeficiency virus type 1 integrase (Human immunodeficiency virus 1)
# Sequence (Q7ZJM1 whole entry): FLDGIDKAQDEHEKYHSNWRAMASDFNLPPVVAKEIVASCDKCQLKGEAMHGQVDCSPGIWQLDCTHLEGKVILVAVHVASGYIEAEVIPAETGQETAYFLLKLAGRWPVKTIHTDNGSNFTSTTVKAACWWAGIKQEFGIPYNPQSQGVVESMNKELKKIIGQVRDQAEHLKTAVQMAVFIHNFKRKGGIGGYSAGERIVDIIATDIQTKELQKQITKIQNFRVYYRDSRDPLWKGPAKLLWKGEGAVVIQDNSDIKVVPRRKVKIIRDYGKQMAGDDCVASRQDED
# experimental details: Inhibition of HIV1 integrase strand transfer activity using 5'[digoxigenin]-GACCCTTTTAGTCAGTGTGGAAAATCTCTAGCA-3' as substrate incubated for 1 hr by ELISA
Documented IC50 across a set of compounds
Lab book: enter the figure in µM, no units written.

Use these answered entries as a reference point.
compound	quantity	result
CCCCNC(=O)C1C(=O)N(O)C(=O)c2ccccc21 (stereo not given)	IC50	0.48
CCCCCCCCNC(=O)C1C(=O)N(O)C(=O)c2ccccc21 (stereo not given)	IC50	9.13
CCCCCCCNC(=O)C1C(=O)N(O)C(=O)c2ccccc21 (stereo not given)	IC50	1.05

Task: Bench note: what IC50 did O=C(C1C(=O)N(O)C(=O)c2ccccc21)N1CCCCC1 (stereo not given) show?
Result: 9.1

Task: I am curious: what IC50 value has been reported for CCCCCNC(=O)C1C(=O)N(O)C(=O)c2ccccc21 (stereo not given) ?
Result: 0.53

Task: Quick check: IC50 of CCCNC(=O)C1C(=O)N(O)C(=O)c2ccccc21 (stereo not given) ?
Result: 1.99

Task: Quick one: IC50 for O=C(NC1CCCCC1)C1C(=O)N(O)C(=O)c2ccccc21 (stereo not given) ?
Result: 3.36

Task: Sample CCN(CC)C(=O)C1C(=O)N(O)C(=O)c2ccccc21 (stereo not given) — what was its IC50?
Result: 206

Task: Reported IC50 for CCCCCCNC(=O)C1C(=O)N(O)C(=O)c2ccccc21 (stereo not given) : what is it?
Result: 0.195

Task: Report IC50 for O=C(NC1CC1)C1C(=O)N(O)C(=O)c2ccccc21 (stereo not given) please.
Result: 4

Task: Form field: reported IC50 of CC(C)NC(=O)C1C(=O)N(O)C(=O)c2ccccc21 (stereo not given)
Result: 5.05

Task: Tell me the measured IC50 of CCCCN(C)C(=O)C1C(=O)N(O)C(=O)c2ccccc21 (stereo not given) , please.
Result: 8.7

Task: Recorded IC50 for O=C(NC1CCCC1)C1C(=O)N(O)C(=O)c2ccccc21 (stereo not given) , please?
Result: 3.63

Task: Given CCCCCCCCCNC(=O)C1C(=O)N(O)C(=O)c2ccccc21 (stereo not given) , state its recorded IC50.
Result: 6.67

Task: Look up IC50 for this compound: CC(C)(C)NC(=O)C1C(=O)N(O)C(=O)c2ccccc21 (stereo not given)
Result: 4.46

* * *

# experimental details: Aqueous solubility in PBS at pH 7.4
# Type: physicochemical
quantity: solubility (µM)
Use µM as the unit, but write only the number.

Task: Looking for the measured solubility of CCCCCCNC(=O)C1C(=O)N(O)C(=O)c2ccccc21 (stereo unspecified) , can you help?
Result: 160

* * *

Let's look at some molecules and their measured cytotoxicity at 72 h, 100 µM.
# experimental details: Cytotoxicity against human HepG2 cells assessed as reduction in nuclear size at 100 uM after 72 hrs by fluorescent image analysis relative to untreated control
# Format: cell-based
# condition label: read-out: INH
Numeric answer only, unit % assumed.

molecule	reading unit	cytotoxicity at 72 h, 100 µM
CCCCCCNC(=O)C1C(=O)N(O)C(=O)c2ccccc21 (configuration not stated)	%	26.8

Continue with the next molecule.
Task: Reported cytotoxicity at 72 h, 100 µM, molecule O=C(NCc1ccc(F)cc1)C1C(=O)N(O)C(=O)c2ccccc21 (configuration not stated) : ____
Result: 18.7
